log10 of IC50 reference
Target: UniProt Q1A7N1
Sequence (Q1A7N1 1-1104): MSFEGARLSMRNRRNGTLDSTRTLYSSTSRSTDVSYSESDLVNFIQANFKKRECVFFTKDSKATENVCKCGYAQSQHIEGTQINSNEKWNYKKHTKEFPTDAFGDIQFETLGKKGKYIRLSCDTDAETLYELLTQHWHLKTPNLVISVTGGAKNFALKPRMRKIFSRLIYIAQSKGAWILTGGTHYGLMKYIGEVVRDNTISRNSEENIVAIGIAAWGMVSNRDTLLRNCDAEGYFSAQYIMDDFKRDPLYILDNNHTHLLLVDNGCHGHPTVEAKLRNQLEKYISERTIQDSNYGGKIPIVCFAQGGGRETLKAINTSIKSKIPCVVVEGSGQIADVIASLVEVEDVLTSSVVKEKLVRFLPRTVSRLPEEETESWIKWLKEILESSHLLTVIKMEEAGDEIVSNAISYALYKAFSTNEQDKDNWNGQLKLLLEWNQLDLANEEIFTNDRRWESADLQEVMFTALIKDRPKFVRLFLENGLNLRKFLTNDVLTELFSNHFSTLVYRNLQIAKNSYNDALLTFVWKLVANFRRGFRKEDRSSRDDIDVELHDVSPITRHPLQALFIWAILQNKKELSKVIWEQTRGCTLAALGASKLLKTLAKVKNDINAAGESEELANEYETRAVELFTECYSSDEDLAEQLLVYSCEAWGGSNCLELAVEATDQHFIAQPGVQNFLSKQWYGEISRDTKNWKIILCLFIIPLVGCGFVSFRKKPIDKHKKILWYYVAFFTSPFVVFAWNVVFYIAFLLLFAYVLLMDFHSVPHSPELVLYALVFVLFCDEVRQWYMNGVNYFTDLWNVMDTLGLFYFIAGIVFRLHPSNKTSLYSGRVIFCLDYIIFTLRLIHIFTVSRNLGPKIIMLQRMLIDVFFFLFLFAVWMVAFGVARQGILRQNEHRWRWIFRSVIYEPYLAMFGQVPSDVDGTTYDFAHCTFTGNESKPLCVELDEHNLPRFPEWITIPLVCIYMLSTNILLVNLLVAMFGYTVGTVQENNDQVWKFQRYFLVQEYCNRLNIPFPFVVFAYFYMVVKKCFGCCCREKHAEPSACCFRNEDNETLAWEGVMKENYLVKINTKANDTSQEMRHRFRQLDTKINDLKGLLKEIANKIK
Experiment: In Vitro Canine TRPM8 Functional Assay (Ca2+ fluorescence, icilin activation)
Assay type: cell-based
Settings: HEK293 cells stably expressing canine TRPM8; icilin activation; eight-point dose-response; read-out: IC50
endpoint: log10 of IC50 (log10 of the value in µM)

molecule: CCCCN(c1sc2ccccc2c1OC)S(=O)(=O)c1ccc(C(=O)O)cc1 [Compound 423]
readout value: -2.15
--
molecule: O=S(=O)(c1ccccc1)N(CC1CCCCC1)c1sc2ccccc2c1Br [Compound 232]
readout value: -1.13
--
molecule: CS(=O)(=O)Nc1ccc(S(=O)(=O)N(CCCCC(F)(F)F)c2sc3ccccc3c2Cl)cc1 [Compound 679]
readout value: -1.24
--
molecule: Cc1c(N(Cc2cccc(OC(F)(F)F)c2)S(=O)(=O)CCC(=O)O)sc2ccccc12 [Compound 762]
readout value: -1.60
--
molecule: CS(=O)(=O)Nc1ccc(S(=O)(=O)N(Cc2ccc(F)c(C(F)(F)F)c2)c2sc3ccccc3c2Cl)c(O)c1 [Compound 780]
readout value: -0.84
--
molecule: CS(=O)(=O)Nc1ccc(S(=O)(=O)N(CCC2CC2)c2sc3ccccc3c2Cl)cc1 [Compound 716]
readout value: -2.05
--
molecule: CC(=O)c1c(N(Cc2ccc(OC(F)(F)F)cc2)S(=O)(=O)c2ccc(C#N)cc2)sc2ccccc12 [Compound 772]
readout value: -2.24
--
molecule: Cc1nccc(-c2cccc(S(=O)(=O)N(Cc3ccc(F)c(C(F)(F)F)c3)c3sc4ccccc4c3C)c2)n1 [Compound 353]
readout value: -2.03
--
molecule: O=S(=O)(c1ccccn1)N(Cc1ccc(F)c(F)c1)c1cc2ccccc2s1 [Compound 9]
readout value: -1.33
--
molecule: O=S(=O)(c1cccnc1)N(Cc1ccc(C(F)(F)F)c(F)c1)c1sc2ccccc2c1Br [Compound 322]
readout value: -2.00
--
molecule: O=C(O)c1ccc(S(=O)(=O)N(CC(F)F)c2sc3ccccc3c2Br)cc1 [Compound 276]
readout value: -1.15
--
molecule: Cc1c(N(Cc2cccc3cccnc23)S(=O)(=O)c2cccc3cnccc23)sc2ccccc12 [Compound 29]
readout value: -1.48
--
molecule: Cc1ccccc1CN(c1cc2ccccc2s1)S(=O)(=O)c1ccccc1 [Compound 62]
readout value: -1.24
--
molecule: O=c1[nH]c(-c2ccc(S(=O)(=O)N(CCC3CC3)c3sc4ccccc4c3Cl)cc2)no1 [Compound 627]
readout value: -2.07
--
molecule: Cc1c(N(Cc2ccc(F)c(F)c2)S(=O)(=O)c2cccc3cnccc23)sc2ccccc12 [Compound 27]
readout value: -1.70
--
molecule: O=S(=O)(c1ccccc1)N(CCc1ccccc1)c1sc2ccccc2c1Br [Compound 233]
readout value: -1.66
--
molecule: O=C(O)c1ccc(S(=O)(=O)N(CCC(F)(F)F)c2sc3ccccc3c2Br)c(F)c1 [Compound 710]
readout value: -2.15
--
molecule: O=C(O)c1ccc(S(=O)(=O)N(Cc2ccc(F)c(C(F)(F)F)c2)c2sc3ccccc3c2C2CCCC2)cc1 [Compound 502]
readout value: -2.00
--
molecule: CCS(=O)(=O)N(Cc1ccc(F)c(C(F)(F)F)c1)c1sc2ccccc2c1C(C)O (centres unmarked) [Compound 220]
readout value: -2.92
--
molecule: CC(O)C1=C(N(Cc2ccc(F)c(F)c2)S(=O)(=O)c2ccccc2)S(=O)(=O)c2ccccc21 (centres unmarked) [Compound 464]
readout value: -2.15
--
molecule: CC(O)c1c(N(Cc2ccc(F)c(C(F)(F)F)c2)S(=O)(=O)c2ccc(C(=O)O)cc2)sc2ccccc12 (centres unmarked) [Compound 335]
readout value: -3.00
--
molecule: Cc1c(N(Cc2ccc(SC(F)(F)F)cc2)S(=O)(=O)c2ccc(C(=O)O)cc2)sc2ccccc12 [Compound 526]
readout value: -3.00
--
molecule: O=C(O)c1ccc(S(=O)(=O)N(CCCCC(F)(F)F)c2cc3ccccc3s2)c(F)c1 [Compound 685]
readout value: -1.92
--
molecule: Cc1c(N(Cc2ccc(OC(F)(F)F)cc2)S(=O)(=O)c2ccc(N3CCOCC3)nc2)sc2ccccc12 [Compound 790]
readout value: -1.66
--
molecule: CN(C)S(=O)(=O)N(Cc1ccc(F)c(C(F)(F)F)c1)c1cc2ccccc2s1 [Compound 315]
readout value: -1.19
--
molecule: COC(=O)c1ccc(S(=O)(=O)N(CCC(F)(F)F)c2sc3ccccc3c2C(C)(C)O)cc1 [Compound 504]
readout value: -1.74
--
molecule: CC(C)c1c(N(Cc2ccc(F)c(C(F)(F)F)c2)S(=O)(=O)c2ccc(C(=O)O)cc2)sc2ccccc12 [Compound 566]
readout value: -2.74
--
molecule: CC(=O)c1c(N(Cc2ccc(F)cc2)S(=O)(=O)c2ccc(Br)cc2)sc2ccccc12 [Compound 730]
readout value: -1.63
--
molecule: CCCCN(c1cc2ccccc2s1)S(=O)(=O)c1ccc(C(N)=NO)cc1 [Compound 471]
readout value: -1.23
--
molecule: CC(C)(O)c1c(N(CCC2CC2)S(=O)(=O)c2ccc(C(=O)[O-])cc2)sc2ccccc12.[Na+] [Compound 657]
readout value: -2.12
--
molecule: Cc1c(N(CC2CC2)S(=O)(=O)c2ccccc2)sc2ccccc12 [Compound 97]
readout value: -1.85
--
molecule: CN(C)S(=O)(=O)N(CC1CC1)c1sc2ccccc2c1Br [Compound 266]
readout value: -1.41
